Reference source: ChEMBL document CHEMBL5614442

Experiment: Cmax in male Sprague-Dawley rat at 2 mg/kg, iv measured after 8 hrs by LC-MS analysis
Format: ADME, organism-based
Conditions: in vivo
Metric: Cmax (ng/mL)
Numbers only, in ng/mL.

I have this compound here, COc1ccc2cc(-c3ccc(NS(=O)(=O)C(F)(F)F)cc3)ncc2c1O , and I need its recorded Cmax. 3420

---

Test: Tmax in male Sprague-Dawley rat at 20 mg/kg, ip measured after 8 hrs by LC-MS analysis
Assay type: ADME, organism-based
Conditions: in vivo
Metric: Tmax (min)
Answers are plain numbers, in min.

Can you look up the measured Tmax of COc1ccc2cc(-c3ccc(NS(=O)(=O)C(F)(F)F)cc3)ncc2c1O for me? 15
